The measurements presented in this section are drawn from ChEMBL document CHEMBL5058577.

Listed next: entries and their corresponding Population Mitotic Cells (%).
- Test system: HEK-293T
- procedure-details: Multiplex assay against HEK293T
- Format: toxicity, cell-based
- measurement-conditions: human, 24 h, 10 µM, compound concentration 10 uM, replicate 2

compound: OCCCNc1cc(-c2ccnc(Nc3cccc(Cl)c3)n2)ccn1
Population Mitotic Cells (%): 21
//
compound: CC(C)(O)C(=O)N1CCN(c2ccc(C(F)(F)F)c(C3=C(c4c[nH]c5ccccc45)C(=O)NC3=O)c2)CC1
Population Mitotic Cells (%): 34
//
compound: COc1ccc2[nH]c(I)c(CCNC(C)=O)c2c1 [IODOMELATONIN]
Population Mitotic Cells (%): 59
//
compound: Cc1ccc(OCC(O)C(C)NC(C)C)c2c1CCC2.Cl (stereo not drawn)
Population Mitotic Cells (%): 50
//
compound: Cc1nn(C)c2nc(NNC(=O)Nc3cc(Cl)nc(Cl)c3)cc(C(C)C)c12
Population Mitotic Cells (%): 44
//
compound: COc1cc(C(=O)N2CC[C@@H](O)[C@@H](N)C2)cc2nc(-c3cc4ccccc4n3CC3CC3)n(C)c12.Cl
Population Mitotic Cells (%): 34
//
compound: CCc1nn2c(C)cc(C)nc2c1Cc1ccc(-c2nnc(C3CCNCC3)o2)cc1
Population Mitotic Cells (%): 58
//
compound: COCCn1c(C)c(C)s/c1=N\C(=O)C1C(C)(C)C1(C)C
Population Mitotic Cells (%): 54
//
compound: CN1C[C@H](C(=O)N[C@]2(C)O[C@@]3(O)[C@@H]4CCCN4C(=O)[C@H](Cc4ccccc4)N3C2=O)C[C@@H]2c3cccc4[nH]cc(c34)C[C@H]21.CS(=O)(=O)O [DIHYDROERGOTAMINE MESYLATE]
Population Mitotic Cells (%): 67
//
compound: CCCCCCNC(=O)Nc1ccc(S(=O)(=O)Nc2ccc(CCNC[C@H](O)COc3ccc(O)cc3)cc2)cc1 [L-755507]
Population Mitotic Cells (%): 51
//
compound: C[C@@H]1CC(=O)Nc2cccc(-c3ccc4c(c3)c(-c3cnn(C)c3)nn4C)c2N1
Population Mitotic Cells (%): 42
//
compound: O=C(O)CCC/C=C\CC1C(O)CC(O)C1/C=C/C(O)COc1cccc(Cl)c1 (stereo not drawn) [CLOPROSTENOL]
Population Mitotic Cells (%): 53
//
compound: CC(F)(F)CN1CCOc2c(nn(-c3ccccc3Cl)c2-c2ccc(Cl)cc2)C1=O
Population Mitotic Cells (%): 58
//
compound: Cc1cc(O)c(-c2ccc([C@@H](C)CN(C)C)cc2)c2c1[nH]c(=O)c1sccc12
Population Mitotic Cells (%): 14
//
compound: Nc1nc(CC(=O)Nc2ccc(CCNC[C@H](O)c3ccccc3)cc2)cs1 [MIRABEGRON]
Population Mitotic Cells (%): 64
//
compound: CC(C)C[C@H](CO)Nc1nc(S[C@@H](C)c2ccccc2)nc2nc(N)sc12 [AZD-8797]
Population Mitotic Cells (%): 48
//
compound: CN(C)C/C=C/C(=O)Nc1ccc(C(=O)N2CCCC(Nc3ncc(Cl)c(-c4c[nH]c5ccccc45)n3)C2)cc1 (stereo not drawn)
Population Mitotic Cells (%): 11
//
compound: CN1CCC(C(=O)c2cccc(NC(=O)c3c(F)cc(F)cc3F)n2)CC1
Population Mitotic Cells (%): 47
//
compound: O=c1nc2[nH]c3ccccc3nc-2c(=O)[nH]1 [ALLOXAZINE]
Population Mitotic Cells (%): 50
//
compound: C[C@H](NC(=O)CNC(=O)c1cccc(Cl)c1)c1ccccc1
Population Mitotic Cells (%): 41
//
compound: S=C(NCCCc1c[nH]cn1)NCCCN(Cc1ccc(Cl)c(Cl)c1)c1ccc(Br)cn1
Population Mitotic Cells (%): 17
//
compound: COCCCN1CCC(NC(=O)c2cc(Cl)c(N)c3c2OCC3)CC1 [PRUCALOPRIDE]
Population Mitotic Cells (%): 50
//
compound: Cc1cc(=O)n(C)c2cc(N3C(=O)CC[C@H](NS(=O)(=O)CC(C)C)[C@H]3c3ccc(Cl)cc3)ccc12
Population Mitotic Cells (%): 23
//
compound: CSc1nc(NC2CCCC2)c([N+](=O)[O-])c(NC2CCCC2)n1 [GS-39783]
Population Mitotic Cells (%): 62
//
compound: COc1cc(OC2CCN(C(C)=O)CC2)ccc1C(=O)N1CCC(N2C(=O)OCc3ccccc32)CC1
Population Mitotic Cells (%): 50
//
compound: COc1cc(Nc2ncc3c(n2)-c2ccc(Cl)cc2C(c2c(F)cccc2OC)=NC3)ccc1C(=O)O [ALISERTIB]
Population Mitotic Cells (%): 43
//
compound: COc1cc2nc(N3CCN(C(=O)c4ccco4)CC3)nc(N)c2cc1OC.Cl [PRAZOSIN HYDROCHLORIDE]
Population Mitotic Cells (%): 45
//
compound: COc1c(Nc2ccc(S(C)(=O)=O)nc2C)ncnc1OC1CCN(C(=O)OC(C)C)CC1 [ADP-597]
Population Mitotic Cells (%): 36
//
compound: CN1CCN2c3ccccc3Cc3ccccc3C2C1.Cl (stereo not drawn) [MIANSERIN HYDROCHLORIDE]
Population Mitotic Cells (%): 67
//
compound: CN(C)C(=O)Cn1cc(-c2ccc(-c3nnc4ccccn34)cc2)cn1
Population Mitotic Cells (%): 38
//
compound: Cc1cc(NC(=O)NCCN2CCC(O)(Cc3ccccc3)CC2)c2ccccc2n1 [PALOSURAN]
Population Mitotic Cells (%): 48
//
compound: Cc1c(Cc2ccc3ccccc3n2)c2cc(F)ccc2n1CC(=O)O [TIMAPIPRANT]
Population Mitotic Cells (%): 62
//
compound: CCCCC[C@H](O)/C=C/[C@H]1[C@H](O)CC(=O)[C@@H]1CCCCCCC(=O)O [ALPROSTADIL]
Population Mitotic Cells (%): 63
